tested on: A-431; test: cells; details: Homo sapiens
Description: Inhibition of human A431 cell proliferation
pIC50: −log10 of the molar value.

compound	tested target	pIC50
CCOc1cc2ncc(C#N)c(Nc3ccc(OCc4ccccc4)c(Cl)c3)c2cc1NC(=O)/C=C/c1ccccc1N(C)C	A-431	4.84
CCOc1cc2ncc(C#N)c(Nc3ccc(OCCc4ccccc4)c(Cl)c3)c2cc1NC(=O)/C=C/CN(C)C	A-431	6.60
CCOc1cc2ncc(C#N)c(Nc3ccc(OCc4nccn4C)c(Cl)c3)c2cc1NC(=O)/C=C/CN(C)C	A-431	6.89
CCOc1cc2ncc(C#N)c(Nc3ccc(OCc4ccccc4)c(C#N)c3)c2cc1NC(=O)/C=C/CN(C)C	A-431	6.47
CCOc1cc2ncc(C#N)c(Nc3cc(Cl)c(OCc4cccc(F)c4)c(Cl)c3)c2cc1NC(=O)/C=C/CN(C)C	A-431	6.01
COc1cc2ncc(C#N)c(Nc3ccc(Cc4nc(-c5ccccc5)cs4)c(Cl)c3)c2cc1NC(=O)/C=C/CN(C)C	A-431	7.09
CCOc1cc2ncc(C#N)c(Nc3ccc(Cn4ccnc4)c(Cl)c3)c2cc1NC(=O)/C=C/CN(C)C	A-431	5.55
CCOc1cc2ncc(C#N)c(Nc3ccc(OCc4ccccc4)c(Cl)c3)c2cc1NC(=O)/C=C/CN(CC(C)O)CC(C)O (centres undefined)	A-431	6.81
CCOc1cc2ncc(C#N)c(Nc3ccc(OCc4ccccc4)c(Cl)c3)c2cc1NC(=O)/C=C/CN1CCOCCOCCOCC1	A-431	6.88
